Origin of the recorded values: paper PMC9890698

Reported EC50 is given for each of the following compounds.
Target: Human P2Y1-R (Homo sapiens)
Construct: expressed in transfected cells; host or cells: HEK293T/17
Sequence (P47900 whole entry): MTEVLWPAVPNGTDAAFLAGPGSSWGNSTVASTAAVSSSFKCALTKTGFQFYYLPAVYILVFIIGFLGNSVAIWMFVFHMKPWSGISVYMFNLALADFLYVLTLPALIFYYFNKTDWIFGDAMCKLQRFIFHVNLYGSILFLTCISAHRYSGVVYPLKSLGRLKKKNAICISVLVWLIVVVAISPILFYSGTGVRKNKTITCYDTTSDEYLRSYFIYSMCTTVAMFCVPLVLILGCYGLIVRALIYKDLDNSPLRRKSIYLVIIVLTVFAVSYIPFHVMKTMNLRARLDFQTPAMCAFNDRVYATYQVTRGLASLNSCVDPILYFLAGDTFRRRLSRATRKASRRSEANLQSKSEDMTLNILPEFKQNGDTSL
Test: β-arrestin 2 recruitment BRET1 assay (β-arrestin 2-RLuc / P2Y1-R-Venus) in HEK293T cells
Format: cell-based
Settings: β-Arrestin 2 signaling, Fig. 4b, 15 min
Value expressed in µM; do not type the unit.

compound="CNc1nc(Cl)nc2c1ncn2[C@H]1CC(OP(=O)(O)O)[C@]2(COP(=O)(O)O)C[C@H]12 (stereo in doubt) [MRS2279]" quantitative_result=19.4

State its EC50 on Human P2Y1-R (Homo sapiens): CNc1nc(I)nc2c1ncn2[C@H]1C[C@H](OP(=O)(O)O)[C@]2(COP(=O)(O)O)C[C@H]12 [MRS2500]
0.0475

Give the reported EC50 for CNc1ncnc2c1ncn2[C@H]1C[C@H](OP(=O)(O)O)[C@@H](COP(=O)(O)O)O1 [MRS2179] (system: Human P2Y1-R (Homo sapiens)).
5.05
